These data points were gathered from patent US10342796B2.

Tested on: AU565 (Her2 amp)
Test: Growth inhibition GI50 in vitro (CCK8/MTT, 72 h)
Assay type: cell-based, human
Details: Homo sapiens, AU565; HER2 positive cell line; range of GI50; read-out: GI50 AU-565
Metric: GI50

Check out these entries, answers already filled in.
| Compound | Test System | GI50 |
| --- | --- | --- |
| C=CC(=O)Nc1cc(Nc2nccc(Nc3ccc(F)c(Cl)c3)n2)c(OC)cc1N(C)CCN(C)C [Compound 13] | AU565 (Her2 amp) | 10 to 100 nM |
| C=CC(=O)Nc1cc(Nc2nccc(-n3ccc4ccc(C#N)cc43)n2)c(OC)cc1N(C)CCN(C)C [Compound 60] | AU565 (Her2 amp) | 100 to 1000 nM |
| C=CC(=O)Nc1cc(Nc2nccc(Nc3cc(OC)c(Cl)cc3Cl)n2)c(OC)cc1N(C)CCN(C)C [Compound 16] | AU565 (Her2 amp) | 100 to 1000 nM |
| C=CC(=O)Nc1cc(Nc2cc(Nc3ccc(F)c(Cl)c3)ncn2)c(OC)cc1OCCN1CCN(C)CC1 [Compound 150] | AU565 (Her2 amp) | 10 to 100 nM |
| C=CC(=O)Nc1cc(Nc2nccc(-n3ccc4ccc(Br)cc43)n2)c(OC)cc1N(C)CCN(C)C [Compound 62] | AU565 (Her2 amp) | 10 to 100 nM |

Tested on AU565 (Her2 amp), the item C=CC(=O)Nc1cc(Nc2cc(-c3cn(C)c4ccccc34)ncn2)c(OC)cc1N(C)CCN1CCCC1 [Compound 178] showed GI50 equal to 100 to 1000 nM

Tested on AU565 (Her2 amp), the item C=CC(=O)Nc1cc(Nc2ncnc(Nc3cccc(Cl)c3F)n2)c(OC)cc1N(C)CCN(C)C [Compound 110] showed GI50 equal to 10 to 100 nM
